Catalogue of molecules with associated MRT last
Test: Plasma pharmacokinetics after oral administration of YCHT in model (CCl4-induced acute liver injury) rats, UHPLC-MS/MS
Settings: Sprague-Dawley, rat, in vivo, po, 60 g/kg
Protocol: The quality control (QC) and plasma samples were analyzed by an Agilent 6470 triple quadrupole LC–MS system (Agilent Technologies, Inc., Santa Clara, CA, USA), which consists of an Agilent 1290 Infinity II system connected to a triple quadrupole MS analyzer with an Agilent Jet Stream technologies electrospray ionization (ESI) interface. […] The plasma concentrations were expressed as arithmetic mean ± standard deviation (SD). […]
quantity.measured: MRT last

INSERT INTO measurements (molecule, reported_result) VALUES
  ('COC(=O)C1=CO[C@@H](O[C@@H]2O[C@H](CO)[C@@H](O)[C@H](O)[C@H]2O)[C@@H]2C(CO)=CC[C@H]12 [Geniposide]', '4.68 h'),
  ('Cc1cc(O)c2c(c1)C(=O)c1cccc(O)c1C2=O', '3.43 h'),
  ('O=C(O)c1cc(O)c2c(c1)C(=O)c1cccc(O)c1C2=O', '4.38 h'),
  ('O=C1c2cccc(O)c2C(=O)c2c(O)cc(CO)cc21', '3.68 h'),
  ('COc1cc(O)c2c(c1)C(=O)c1cc(C)cc(O)c1C2=O', '4.07 h'),
  ('COc1cc2ccc(=O)oc2cc1O', '4.81 h'),
  ('Cc1cc(O)c2c(c1)C(=O)c1cc(O)cc(O)c1C2=O', '4.83 h');
